# credit: patent US9815851B2

Listed below: IC50 values for each entry.
- Assay system: RORγ ligand binding domain (LBD) (Homo sapiens, UniProt P51449)
- Construct: made in house; host or cells: E. coli BL-21 (BL3), vector pDEST15
- Sequence (P51449 269-508 limits assumed): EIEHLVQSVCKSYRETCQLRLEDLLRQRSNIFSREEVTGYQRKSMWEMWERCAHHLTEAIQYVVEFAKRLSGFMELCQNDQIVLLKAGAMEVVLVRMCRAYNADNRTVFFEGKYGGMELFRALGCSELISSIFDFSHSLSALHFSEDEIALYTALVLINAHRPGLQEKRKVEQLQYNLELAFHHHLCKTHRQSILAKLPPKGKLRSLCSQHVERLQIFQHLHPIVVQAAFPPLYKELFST
- Measurement notes: TR-FRET Activity Assay (ligand sensing, RORγ-LBD / coactivator peptide interaction, LANCE)
- Type: biochemical
- Protocol conditions: first value of the cell FRET/FF/REN; TR-FRET activity assay; read-out: pIC50 (FRET) (converted)
Only the number, expressed in µM, is required.

Completed entries (count: 8):
Cc1c(C(=O)N[C@H]2C[C@H](C(=O)O)C2)c(Cl)c(-c2cc(C(C)(C)O)cc(C3(C)CC3)c2)n1CC1CCCCC1 :: 3.16
Cc1c(C(=O)NCC(C)(C)C(N)=O)cc(-c2cc(C(C)(C)C)c3c(c2)C2(CCO3)CC2)n1CC1CCCCC1 :: 0.631
Cc1c(C(=O)NC2CCOCC2)cc(-c2ccc(C(=O)NC3CCCCC3)c(C(F)(F)F)c2)n1CC1CCCCC1 :: 10
Cc1c(C(=O)NCC(=O)O)cc(-c2cc(C(C)(C)C)cc(C(C)(C)C)c2)n1CC1CCCCC1 :: 2.51
Cc1cc(C(C)(C)C)cc(-c2cc(C(=O)N[C@H]3C[C@H](C(=O)O)C3)c(C)n2CC2CCCCC2)c1OC(F)F :: 12.6
Cc1c(C(=O)NC2CCOCC2)cc(-c2ccc(C(=O)N(C)C)c(C(C)(C)C)c2)n1CC1CCCCC1 :: 2.51
Cc1c(C(=O)NCCc2nnn[nH]2)cc(-c2cc(C(C)(C)C)cc(C3(C)CC3)c2)n1CC1CCCCC1 :: 1.26
Cc1c(C(=O)NC2CCOCC2)cc(-c2ccc(S(=O)(=O)NC(C)(C)CCO)c(C(F)(F)F)c2)n1CC1CCCCC1 :: 1

Fill in the blank: the reported IC50 of Cc1c(C(=O)N[C@H]2C[C@H](C(=O)O)C2)cc(-c2ccc(S(=O)(=O)NC(C)(C)C)c(Cl)c2Cl)n1CC1CCCCC1 is ____. 0.398

Check Cc1c(C(=O)NC2CCOCC2)cc(-c2ccc(S(=O)(=O)NC(C)(C)CCF)c(C(F)(F)F)c2)n1CC1CCCCC1 too. 0.251

----------
- Assay system: RORγ ligand binding domain (LBD) (Homo sapiens, UniProt P51449)
- Construct: made in house; host or cells: E. coli BL-21 (BL3), vector pDEST15
- Measurement notes: TR-FRET Activity Assay (ligand sensing, RORγ-LBD / coactivator peptide interaction, LANCE)
- Assay type: biochemical
Listed below: pIC50 values for each entry.
The scale used: pIC50 is minus the common logarithm of the concentration in molar units.

Cc1c(C(=O)NCCN2CCOCC2)cc(-c2cc(C(C)(C)C)c3c(c2)C2(CCO3)CC2)n1CC1CCCCC1 [1/41] :: 6.30

Fill in the blank: the reported pIC50 of Cc1c(C(=O)NCCCCC[S+](C)[O-])cc(-c2cc(C(C)(C)C)c3c(c2)C2(CCO3)CC2)n1CC1CCCCC1 (centres unmarked) [17/79] is ____. 5.80

Check Cc1c(C(=O)NC2CCS(=O)(=O)CC2)cc(-c2ccc(S(=O)(=O)NC(C)(C)C)c(C(C)(C)C)c2)n1CC1CCCCC1 [17/92] too. 6.00
